# TESTED SYSTEM: Transcriptional activator protein LasR (Pseudomonas aeruginosa (strain ATCC 15692 / PAO1 / 1C / PRS 101 / LMG12228))
# TEST METHOD NOTES: Agonist activity at Pseudomonas aeruginosa PAO1 MW1 (pUM15) LasR assessed as activation of quorum sensing at 10 uM relative to N-(3-oxo)-dodecanoyl HL
# Format: functional
QUANTITY NAME: Activity (%)

{"MOLECULE": "O=C(Cc1ccc(Br)cc1)Nc1ccccc1", "UOM": "%", "NUMBER": 0}
{"MOLECULE": "O=C(Cc1cccc([N+](=O)[O-])c1)NC1CCCC1", "UOM": "%", "NUMBER": 0}
{"MOLECULE": "CCCCCCCCCC(=O)CC(=O)NC1CCCC1", "UOM": "%", "NUMBER": 54}
{"MOLECULE": "O=C(Cc1cccc([N+](=O)[O-])c1)Nc1ccccc1", "UOM": "%", "NUMBER": 1}
{"MOLECULE": "CCCCCCCCCC(=O)Nc1ccccc1", "UOM": "%", "NUMBER": 0}

A = O=C(Cc1ccc(-c2ccccc2)cc1)NC1CCCC1
B = CCOC(=O)CNC(=O)Cc1ccccc1
Please indicate which entry, A or B , has the lower recorded Activity value. In your reply, give the label of the chosen option. B
(B: 0%, A: 1%)
